target: TEC (Homo sapiens, UniProt P42680); test: Inhibition of a panel of kinases, in vitro HotSpot kinase assay: TEC; type: biochemical; conditions: D-compounds panel data; 1 μM ATP
Sequence (P42680 whole entry): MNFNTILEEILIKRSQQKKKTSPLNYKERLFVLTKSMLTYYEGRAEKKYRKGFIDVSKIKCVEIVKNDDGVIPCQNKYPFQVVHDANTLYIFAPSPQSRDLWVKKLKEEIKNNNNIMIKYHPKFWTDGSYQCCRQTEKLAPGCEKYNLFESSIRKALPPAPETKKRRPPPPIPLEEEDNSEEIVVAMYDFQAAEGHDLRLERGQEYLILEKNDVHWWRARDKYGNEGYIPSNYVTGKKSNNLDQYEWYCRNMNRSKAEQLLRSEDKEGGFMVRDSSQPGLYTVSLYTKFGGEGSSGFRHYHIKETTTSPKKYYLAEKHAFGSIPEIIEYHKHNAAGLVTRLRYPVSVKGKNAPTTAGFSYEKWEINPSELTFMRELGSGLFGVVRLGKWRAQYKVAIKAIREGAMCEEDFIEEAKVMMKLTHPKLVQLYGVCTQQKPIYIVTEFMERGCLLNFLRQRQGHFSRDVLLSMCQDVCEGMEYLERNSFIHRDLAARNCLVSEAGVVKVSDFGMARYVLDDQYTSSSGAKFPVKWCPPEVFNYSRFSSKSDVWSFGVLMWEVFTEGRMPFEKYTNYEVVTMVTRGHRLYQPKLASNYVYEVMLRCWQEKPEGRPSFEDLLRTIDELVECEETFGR
Value Kind: IC50

Sample answers from the record:
## Task Hello, I am looking for reported IC50 with TEC (Homo sapiens, UniProt P42680) for Cc1cc(Nc2nc(N3C[C@@H](NC(=O)N(C)C)CC[C@@H]3C)cnc2C(N)=O)sn1 [Example D-76] . Could you help?
## Result 1000 to 10000 nM

## Task What is its IC50 for TEC (Homo sapiens, UniProt P42680)? Entry: C[C@@H]1[C@H](NC(=O)c2ccc(C3CC3)cc2)CCCN1c1cnc(C(N)=O)c(Nc2ccc(N3CCC(C(=O)N(C)C)CC3)cc2)n1 [Example D-320]
## Result ≤ 10 nM

## Task IC50 of CNC(=O)N[C@@H]1CCCN(c2cnc(C(N)=O)c(Nc3cnn(C)c3)n2)[C@@H]1C [Example D-109] on TEC (Homo sapiens, UniProt P42680)?
## Result 10 to 100 nM

## Task Reported IC50 for TEC (Homo sapiens, UniProt P42680), given C[C@@H]1[C@H](NC(=O)c2ccc(C3CC3)cc2)CCCN1c1cnc(C(N)=O)c(Nc2ccc(OC3CCCN(C)C3)cc2)n1 (stereo partly drawn) [Example D-105] ?
## Result ≤ 10 nM

## Task Which IC50 is reported with TEC (Homo sapiens, UniProt P42680) for this entry: Cc1nn(C)cc1Nc1nc(N2CCC[C@@H](NC(=O)c3ccc(C4CC4)cc3)[C@H]2C)cnc1C(N)=O [Example D-272] ?
## Result 1000 to 10000 nM

## Task Notebook entry, TEC (Homo sapiens, UniProt P42680) assay: IC50 of Cn1cc(Nc2nc(N3C4CCC(NC(=O)c5ccc(C6CC6)cc5)C3CC4)cnc2C(N)=O)cn1 (single isomer, unassigned) [Example D-200] = ?
## Result 1000 to 10000 nM

## Task Request body: readout IC50, system TEC (Homo sapiens, UniProt P42680), query C[C@@H]1[C@H](NC(=O)N(C)C)CCCN1c1cnc(C(N)=O)c(Nc2ccc(N3CCN(C)CC3)cn2)n1 [Example D-180] . Return the value.
## Result > 10000 nM

## Task Fill in the recorded IC50 for this molecule, with TEC (Homo sapiens, UniProt P42680) as test system: C[C@@H]1[C@H](NC(=O)c2cnn(C(C)(C)C)c2)CCCN1c1cnc(C(N)=O)c(Nc2cnn(C)c2)n1 [Example D-57]
## Result 10 to 100 nM

## Task Form entry - test system: TEC (Homo sapiens, UniProt P42680); read-out: IC50; molecule: C[C@@H]1[C@H](NC(=O)c2ccc(C3CC3)cc2F)CCCN1c1cnc(C(N)=O)c(Nc2cc(CN3CCCCC3)ns2)n1 [Example D-176]
## Result 10 to 100 nM

## Task Param readout= IC50; system= TEC (Homo sapiens, UniProt P42680); entry= C[C@@H]1[C@H](NC(=O)c2cnc(C3CC3)cn2)CCCN1c1cnc(C(N)=O)c(Nc2cnn(C)c2)n1 [Example D-205] ; returns value.
## Result ≤ 10 nM

Further cases:
## Task Kindly state the measured IC50 obtained for Cn1cc(Nc2nc(N3CCC[C@H]4[C@@H]3CCCN4C(=O)c3ccc(C4CC4)cc3)cnc2C(N)=O)cn1 [Example D-47] with TEC (Homo sapiens, UniProt P42680).
## Result 1000 to 10000 nM

## Task Field: IC50 (TEC (Homo sapiens, UniProt P42680)). Entry: CC1COc2cc(C(=O)N[C@@H]3CCCN(c4cnc(C(N)=O)c(Nc5cnn(C)c5)n4)[C@@H]3C)ccc2C1 (stereo partly drawn) [Example D-56]
## Result ≤ 10 nM

## Task Lab note: need IC50 for CCN(CC)c1ccc(C(=O)N[C@@H]2CCCN(c3cnc(C(N)=O)c(Nc4cnn(C)c4)n3)[C@@H]2C)cc1 [Example D-218] on TEC (Homo sapiens, UniProt P42680), anyone have it?
## Result ≤ 10 nM

## Task Lab note: need IC50 for C[C@@H]1[C@H](NC(=O)c2ccc(C3CC3)cc2)CCCN1c1cnc(C(N)=O)c(Nc2cnn(-c3ccncc3)c2)n1 [Example D-284] on TEC (Homo sapiens, UniProt P42680), anyone have it?
## Result ≤ 10 nM
